The measured values listed here are drawn from paper PMC4481117.

- Test system: αMI-domain
- Experiment Notes: αMI-domain binding to cellulose-bound peptide libraries (SPOT, autoradiography, densitometry)
- Condition Notes: cellulose-bound 9-mer libraries, 125I-labeled αMI-domain
Parameter: αMI-domain binding (in words)

sequence_data=YGGFLRRIR value_observed="highest affinities"
sequence_data=FLRRIRPKL value_observed="highest affinities"
